Reference source for all entries: patent US20100196390A1

Target: TrkB (Homo sapiens (Human), UniProt Q16620 32-430)
Sequence (Q16620 32-430 limits assumed): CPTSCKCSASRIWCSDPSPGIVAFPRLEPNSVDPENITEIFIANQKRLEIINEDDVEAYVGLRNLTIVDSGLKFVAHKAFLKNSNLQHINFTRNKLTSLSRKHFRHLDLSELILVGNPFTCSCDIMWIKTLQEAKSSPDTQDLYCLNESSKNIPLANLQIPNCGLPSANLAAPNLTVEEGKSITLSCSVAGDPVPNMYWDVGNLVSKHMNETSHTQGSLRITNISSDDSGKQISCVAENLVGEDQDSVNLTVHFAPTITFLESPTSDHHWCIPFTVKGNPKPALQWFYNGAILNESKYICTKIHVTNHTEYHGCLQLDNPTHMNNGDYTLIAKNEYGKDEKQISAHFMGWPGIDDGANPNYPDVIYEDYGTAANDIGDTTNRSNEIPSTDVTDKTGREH
Experiment: koff of Fab at 25 C; T1/2=Log2/koff
Below is a list of entries, each paired with its recorded log10 of T1/2 value.
Give log10 of T1/2, with T1/2 taken in min.

Examples from the recorded data:
INSERT INTO results (binder, endpoint_label, reported_measurement) VALUES
  ('10-D11 (Fab, V domains shown, Fab) VH: QVQLVQSGAEVKKPGASVKVSCKASGYTFTNYDIIWVRQAPGQGLEWMGYINPYNGRREYNEKFKGRVTMTRDTSTSTVYMELSSLRSEDTAVYYCARLLKYRRFRYYAIDYWGQGTTVTVSS VL: DIQMTQSPSSLSASVGDRVTITCRASENVYRNLAWYQQKPGKAPKLLIYAASNLQSGVPSRFSGSGSGTDFTFTISSLQPEDIATYYCQHFWYSPFTFGQGTKLEIK', 'log10 of T1/2', 0.62),
  ('8-C8 (Fab, V domains shown, Fab) VH: QVQLVQSGAEVKKPGASVKVSCKASGYTFTNYVILWVRQAPGQGLEWMGYINPYNDGTKYNEKFKGRVTMTRDTSTSTVYMELSSLRSEDTAVYYCARLLKYRRFRYYAIDYWGQGTTVTVSS VL: DIQMTQSPSSLSASVGDRVTITCRASENVYSNLAWYQQKPGKAPKLLIYAASNLQSGVPSRFSGSGSGTDFTFTISSLQPEDIATYYCQHFWYSPFGFGQGTKLEIK', 'log10 of T1/2', 0.25),
  ('4B12-2 (Fab, V domains shown, Fab) VH: QVQLVQSGAEVKKPGASVKVSCKASGYTFTNYDIIWVRQAPGQGLEWMGYINPYQGRREYNEKFKGRVTMTRDTSTSTVYMELSSLRSEDTAVYYCARLLKYRRFRYYAIDYWGQGTTVTVSS VL: DIQMTQSPSSLSASVGDRVTITCRASEPVYSNVAWYQQKPGKAPKLLIYAASNLQSGVPSRFSGSGSGTDYTFTISSLQPEDIATYYCQHFWGSPFTFGQGTKLEIK', 'log10 of T1/2', 0.76);

// log10 of T1/2 lookup, binder = 6-A6 (Fab, V domains shown, Fab) VH: QVQLVQSGAEVKKPGASVKVSCKASGYTFTNYVILWVRQAPGQGLEWMGYINPYNDGTKYNEKFKGRVTMTRDTSTSTVYMELSSLRSEDTAVYYCARLLKYRRFKYYAIDYWGQGTTVTVSS VL: DIQMTQSPSSLSASVGDRVTITCRASENVYSNLAWYQQKPGKAPKLLIYAASNLQSGVPSRFSGSGSGTDFTFTISSLQPEDIATYYCQHFWYSPFVFGQGTKLEIK , result: 0.20

// log10 of T1/2 lookup, binder = 4B12-17 (Fab, V domains shown, Fab) VH: QVQLVQSGAEVKKPGASVKVSCKASGYTFTNYDIIWVRQAPGQGLEWMGYINPANGRREYNEKFKGRVTMTRDTSTSTVYMELSSLRSEDTAVYYCARLLKYRRFRYYAIDYWGQGTTVTVSS VL: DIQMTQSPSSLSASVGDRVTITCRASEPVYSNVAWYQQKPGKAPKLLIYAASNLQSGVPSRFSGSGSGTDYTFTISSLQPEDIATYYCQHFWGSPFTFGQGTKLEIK , result: 0.00

// log10 of T1/2 lookup, binder = 7-D1 (Fab, V domains shown, Fab) VH: QVQLVQSGAEVKKPGASVKVSCKASGYTFTNYVILWVRQAPGQGLEWMGYINPYNDGTKYNEKFKGRVTMTRDTSTSTVYMELSSLRSEDTAVYYCARLLKYRRFSYYAIDVWGQGTTVTVSS VL: DIQMTQSPSSLSASVGDRVTITCRASENVYSNLAWYQQKPGKAPKLLIYAASNLQSGVPSRFSGSGSGTDFTFTISSLQPEDIATYYCQHFWYLPFTFGQGTKLEIK , result: -0.15

// log10 of T1/2 lookup, binder = 4-A1 (Fab, V domains shown, Fab) VH: QVQLVQSGAEVKKPGASVKVSCKASGYTFTNYVILWVRQAPGQGLEWMGYINPYNDGTKYNEKFKGRVTMTRDTSTSTVYMELSSLRSEDTAVYYCARLLKYRRFSYYAIDYWGQGTTVTVSS VL: DIQMTQSPSSLSASVGDRVTITCRASENVYSNLAWYQQKPGKAPKLLIYAASNLQSGVPSRFSGSGSGTDFTFTISSLQPEDIATYYCQHFYYSPFTFGQGTKLEIK , result: -0.03

// log10 of T1/2 lookup, binder = 4B12-20 (Fab, V domains shown, Fab) VH: QVQLVQSGAEVKKPGASVKVSCKASGYTFTNYDIIWVRQAPGQGLEWMGYINPYNGRREYAEKFKGRVTMTRDTSTSTVYMELSSLRSEDTAVYYCARLLKYRRFRYYAIDYWGQGTTVTVSS VL: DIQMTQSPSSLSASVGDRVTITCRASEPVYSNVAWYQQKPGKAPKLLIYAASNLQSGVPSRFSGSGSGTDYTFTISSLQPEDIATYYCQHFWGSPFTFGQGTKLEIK , result: 1.09

// log10 of T1/2 lookup, binder = 11-G2 (Fab, V domains shown, Fab) VH: QVQLVQSGAEVKKPGASVKVSCKASGYTFTNYDIIWVRQAPGQGLEWMGYINPYNDGRKENEKFKGRVTMTRDTSTSTVYMELSSLRSEDTAVYYCARLLKYRRFRYYAIDYWGQGTTVTVSS VL: DIQMTQSPSSLSASVGDRVTITCRASENVYSNLAWYQQKPGKAPKLLIYAASNLQSGVPSRFSGSGSGTDFTFTISSLQPEDIATYYCQHFWDSPFTFGQGTKLEIK , result: 0.18

// log10 of T1/2 lookup, binder = 1-B10 (Fab, V domains shown, Fab) VH: QVQLVQSGAEVKKPGASVKVSCKASGYTFTNYVILWVRQAPGQGLEWMGYINPYNDGTKYNEKFKGRVTMTRDTSTSTVYMELSSLRSEDTAVYYCARLLKYRRFSFYAIDYWGQGTTVTVSS VL: DIQMTQSPSSLSASVGDRVTITCRASENVYSNLAWYQQKPGKAPKLLIYAASNLQSGVPSRFSGSGSGTDFTFTISSLQPEDIATYYCQGFWYSPFTFGQGTKLEIK , result: -0.26
